# credit: ChEMBL document CHEMBL5104165

- System: HeLa
- protocol.notes: Cytotoxicity against human HeLa cells assessed as inhibition of cell growth incubated for 72 hrs by resazurin dye based assay
- Assay type: functional
pIC50: −log10 of the molar value.
Kindly return Condition met if reported pIC50 is no lower than 5; return Condition not met if it is lower.

Query block: Determine whether measured pIC50 meets or exceeds 5 for COC(=O)c1ccc2[nH]c(NCc3ccco3)nc2c1
Result block: Condition met

Query block: Quick check, pIC50 >= 5? Cc1ccc2[nH]c(NCc3ccco3)nc2c1
Result block: Condition met

Query block: // inclusive: pIC50 at least 5? input: Clc1ccc2[nH]c(NCc3ccco3)nc2c1
Result block: Condition met

Query block: Given the entry c1coc(CNc2nc3ccccc3[nH]2)c1 , answer whether its pIC50 meets or surpasses 5.
Result block: Condition not met

Query block: Quick check: does c1ccc(Oc2ccc3[nH]c(NCc4ccco4)nc3c2)cc1 have pIC50 greater than or equal to 5?
Result block: Condition met

Query block: Kindly determine if pIC50 recorded for Cc1ccc(CNc2nc3ccccc3[nH]2)o1 is above or exactly 5.
Result block: Condition not met

Query block: // inclusive: pIC50 at least 5? input: N#Cc1ccc2[nH]c(NCc3ccco3)nc2c1
Result block: Condition not met
